pEC50 by entry:
- Measured Target: IRE1a (Homo sapiens, UniProt O75460)
- Sequence (O75460 19-977): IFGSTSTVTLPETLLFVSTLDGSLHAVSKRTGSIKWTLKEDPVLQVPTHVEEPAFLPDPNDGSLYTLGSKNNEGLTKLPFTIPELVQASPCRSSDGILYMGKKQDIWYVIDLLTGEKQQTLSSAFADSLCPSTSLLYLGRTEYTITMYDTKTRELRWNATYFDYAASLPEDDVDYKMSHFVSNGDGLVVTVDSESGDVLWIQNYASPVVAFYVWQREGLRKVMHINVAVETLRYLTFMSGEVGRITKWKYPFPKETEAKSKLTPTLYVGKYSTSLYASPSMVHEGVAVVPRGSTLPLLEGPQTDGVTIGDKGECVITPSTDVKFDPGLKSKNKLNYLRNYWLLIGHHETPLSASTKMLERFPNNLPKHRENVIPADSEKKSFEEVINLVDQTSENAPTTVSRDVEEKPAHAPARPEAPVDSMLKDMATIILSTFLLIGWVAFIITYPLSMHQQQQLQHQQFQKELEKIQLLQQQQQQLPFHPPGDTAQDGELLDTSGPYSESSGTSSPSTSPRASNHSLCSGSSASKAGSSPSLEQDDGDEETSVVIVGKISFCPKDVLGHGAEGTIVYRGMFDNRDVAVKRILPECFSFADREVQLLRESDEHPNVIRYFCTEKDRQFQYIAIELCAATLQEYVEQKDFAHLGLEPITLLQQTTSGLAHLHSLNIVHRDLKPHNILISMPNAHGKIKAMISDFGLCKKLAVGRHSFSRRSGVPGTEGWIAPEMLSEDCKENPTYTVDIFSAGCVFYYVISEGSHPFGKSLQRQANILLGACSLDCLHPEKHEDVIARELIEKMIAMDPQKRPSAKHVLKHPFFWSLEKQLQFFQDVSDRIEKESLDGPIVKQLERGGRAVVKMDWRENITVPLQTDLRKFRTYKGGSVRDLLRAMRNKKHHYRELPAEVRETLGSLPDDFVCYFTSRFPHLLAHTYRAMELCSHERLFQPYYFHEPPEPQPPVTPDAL
- Assay Summary: IRE1a Endoribonuclease Nanoluciferase Assay (XBP1 luciferase reporter in 293T cells)
- Condition Info: XBP1 nanoluciferase reporter in 293T cells, ER stressor; tested as the salt named
pEC50: −log10 of the molar value.
Quantity: pEC50

INSERT INTO results (smiles_representation, recorded_result) VALUES
  ('NC12CCC(Nc3ncc4cc(-c5ccc(NS(=O)(=O)c6ccccc6Cl)c(F)c5)ccc4n3)(CC1)C2', '7.00 to 7.30'),
  ('N[C@H]1CC[C@H](Nc2ncc3cc(-c4ncc(NS(=O)(=O)c5ccccc5Cl)cc4F)ccc3n2)CC1', '7.00 to 7.30'),
  ('CCc1cc(-c2ccc(NS(=O)(=O)c3ccccc3Cl)nc2C)cc2cnc(N[C@H]3CC[C@H](NC)CC3)nc12', '> 8.30'),
  ('CCCc1cc(-c2cc(NS(=O)(=O)c3ccccc3Cl)nn2C)cc2cnc(N[C@H]3CC[C@H](N)CC3)nc12', '7.30 to 8.30'),
  ('Cc1nc(NS(=O)(=O)c2ccccc2Cl)ccc1-c1cc(C(C)(F)F)c2nc(N[C@H]3CC[C@H](N(C)C)CC3)ncc2c1', '> 8.30'),
  ('CCc1cc(-c2ccc(NS(=O)(=O)c3cccc(F)c3Cl)nc2C)cc2cnc(N[C@H]3CC[C@H](N(C)C)CC3)nc12', '> 8.30'),
  ('CCc1cc(NS(=O)(=O)c2ccccc2Cl)ccc1-c1cc(CC)c2nc(N[C@H]3CC[C@H](N)CC3)ncc2c1', '7.30 to 8.30');

---

- Measured Target: IRE1a (Homo sapiens, UniProt O75460)
- Assay Summary: IRE1a Endoribonuclease Nanoluciferase Assay (XBP1 luciferase reporter in 293T cells)
- Condition Info: XBP1 nanoluciferase reporter in 293T cells, ER stressor; tested as the salt named
pEC50: −log10 of the molar value.
Quantity: pEC50

INSERT INTO results (smiles_representation, recorded_result) VALUES
  ('CCc1cc(-c2ccc(NS(=O)(=O)c3ccccc3Cl)c(F)c2)cc2cnc(N[C@H]3CC[C@H](N)CC3)nc12', '> 8.30'),
  ('CCc1cc(-c2ccc(NS(=O)(=O)c3ccccc3Cl)nc2C)cc2cnc(N[C@H]3CC[C@H](N(C)CCOC)CC3)nc12', '> 8.30'),
  ('CCc1cc(-c2ccc(NS(=O)(=O)c3ccccc3Cl)nn2)cc2cnc(N[C@H]3CC[C@H](NC)CC3)nc12', '> 8.30'),
  ('CCc1cc(-c2ccc(NS(=O)(=O)c3ccccc3Cl)nc2)cc2cnc(N[C@H]3CC[C@H](N)CC3)nc12', '> 8.30'),
  ('Cc1cc2nc(N[C@H]3CC[C@H](N)CC3)ncc2cc1-c1ccc(NS(=O)(=O)c2ccccc2Cl)c(F)c1', '7.30 to 8.30'),
  ('CCc1cc(-c2ccc(NS(=O)(=O)c3ccccc3Cl)c(F)c2)cc2cnc(N[C@H]3CC[C@H](NC(=O)[C@@H](N)C(C)C)CC3)nc12', '> 8.30');

---

- Measured Target: UniProt:O75460
- Assay Summary: IRE1a Endoribonuclease Nanoluciferase Assay (XBP1 luciferase reporter in 293T cells)
- Type: cell-based
- Design: endogenous in cells; host or cells: 293T
- Condition Info: XBP1 nanoluciferase reporter in 293T cells, ER stressor; tested as the salt named
pEC50: −log10 of the molar value.
Quantity: pEC50

INSERT INTO assay_data (molecule, recorded_result) VALUES
  ('COc1nc(NS(=O)(=O)c2ccccc2Cl)c(F)cc1-c1cc(F)c2nc(N[C@H]3CC[C@H](N(C)C)CC3)ncc2c1 [Compound 155]', '7.00 to 7.30'),
  ('N[C@H]1CC2C[C@@H](Nc3ncc4cc(-c5ccc(NS(=O)(=O)c6ccccc6Cl)c(F)c5)ccc4n3)CC2C1 (some centres unmarked) [Compound 85]', '5.00 to 7.00'),
  ('CCc1cc(-c2nnc(NS(=O)(=O)c3ccccc3Cl)cc2C)cc2cnc(N[C@H]3CC[C@H](N)CC3)nc12 [Compound 67]', '7.30 to 8.30'),
  ('N[C@H]1CC[C@H](Nc2ncc3cc(-c4ccc(NS(=O)(=O)c5ccccc5Cl)c(F)c4F)ccc3n2)CC1 [Compound 56]', '> 8.30'),
  ('N[C@H]1CC[C@H](Nc2ncc3cc(-c4cnc(NS(=O)(=O)c5ccccc5Cl)c(F)c4)ccc3n2)CC1 [Compound 54]', '7.30 to 8.30'),
  ('CCc1cc(-c2cnc(NS(=O)(=O)c3ccccc3Cl)cn2)cc2cnc(N[C@H]3CC[C@H](N)CC3)nc12 [Compound 25]', '> 8.30'),
  ('CCc1cc(-c2ccc(NS(=O)(=O)c3ccccc3Cl)c(F)c2)cc2cnc(N[C@H]3CC4C[C@H](N)CC4C3)nc12 (some centres unmarked) [Compound 82]', '7.30 to 8.30'),
  ('CCc1cc(-c2cc(NS(=O)(=O)c3ccccc3Cl)n[nH]2)cc2cnc(N[C@H]3CC[C@H](N)CC3)nc12 [Compound 29]', '5.00 to 7.00'),
  ('CCc1cc(-c2ccc(NS(=O)(=O)c3cccc(Cl)c3Cl)nc2C)cc2cnc(N[C@H]3CC[C@H](N(C)C)CC3)nc12 [Compound 152]', '> 8.30'),
  ('CCc1cc(-c2cnc(NS(=O)(=O)c3ccccc3Cl)c(F)c2)cc2cnc(N[C@H]3CC[C@H](N)CC3)nc12 [Compound 55]', '> 8.30'),
  ('CCc1cc(-c2cc(F)c(NS(=O)(=O)c3ccccc3Cl)nc2OC)cc2cnc(NC3CCC(NC)CC3)nc12 (centres unmarked) [Compound 127]', '> 8.30');
